test system: T1, EsCas13d, nuclease-dead (Eubacterium siraeum, UniProt B0MS50, R295A;H300A;R849A;H854A)
T1 sequence: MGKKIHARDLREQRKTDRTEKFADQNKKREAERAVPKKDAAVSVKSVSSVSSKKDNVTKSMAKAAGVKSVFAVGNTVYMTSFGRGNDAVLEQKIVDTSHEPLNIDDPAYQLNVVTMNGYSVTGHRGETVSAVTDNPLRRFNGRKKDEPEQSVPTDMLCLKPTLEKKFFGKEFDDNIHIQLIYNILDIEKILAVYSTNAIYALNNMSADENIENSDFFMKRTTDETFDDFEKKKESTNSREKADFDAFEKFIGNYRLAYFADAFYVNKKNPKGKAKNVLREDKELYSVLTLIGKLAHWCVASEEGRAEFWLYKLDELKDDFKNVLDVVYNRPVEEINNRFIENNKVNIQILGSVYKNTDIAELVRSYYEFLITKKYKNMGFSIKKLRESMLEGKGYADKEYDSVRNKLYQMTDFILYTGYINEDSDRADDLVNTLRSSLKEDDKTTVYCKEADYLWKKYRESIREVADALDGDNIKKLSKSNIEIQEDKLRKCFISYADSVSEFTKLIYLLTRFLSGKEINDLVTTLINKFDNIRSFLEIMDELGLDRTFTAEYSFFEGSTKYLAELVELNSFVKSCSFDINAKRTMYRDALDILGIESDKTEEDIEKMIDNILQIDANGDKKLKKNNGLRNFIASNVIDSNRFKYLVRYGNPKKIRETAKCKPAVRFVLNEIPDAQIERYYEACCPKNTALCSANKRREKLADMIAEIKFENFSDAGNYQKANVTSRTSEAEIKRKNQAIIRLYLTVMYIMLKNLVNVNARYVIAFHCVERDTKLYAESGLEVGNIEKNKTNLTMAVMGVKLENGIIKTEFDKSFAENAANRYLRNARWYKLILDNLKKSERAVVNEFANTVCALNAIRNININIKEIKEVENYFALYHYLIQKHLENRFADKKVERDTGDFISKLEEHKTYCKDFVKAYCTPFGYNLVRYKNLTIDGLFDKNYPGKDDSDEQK
run description: crRNA (strand 1, pre-loaded); Mg2+; 40 mM Tris-HCl pH 7.5, 150 mM NaCl, 6 mM MgCl2, 1 mM DTT, 0.1% Tween-20, 0.2 mg/ml BSA; 25 C; 10 min per concentration, then washed
condition info: tags: His6-TwinStrep-SUMO cleaved; N-terminal SNAP kept (SNAP-Surface 488); label: 3' end held by stalled T7 RNA polymerase
// classify: if (Kd < 20 nM) True else False

Completed entries (count: 5):
target 2 MT 5'PFS GUU 3'PFS CAC (mixed) RNA 1: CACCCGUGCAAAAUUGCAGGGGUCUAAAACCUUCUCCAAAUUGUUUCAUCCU RNA 2: GGGAAUGGAUCCACAUCUACGAAUUCGUUAGGAUGAAACAAUUUGGAGAAGCACAGAUCGGAAGAGCACACGU :: True
target 1 A1C,U3A (mixed) RNA 1: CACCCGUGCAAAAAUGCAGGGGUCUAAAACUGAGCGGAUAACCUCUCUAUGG RNA 2: GGGAAUGGAUCCACAUCUACGAAUUCGUACCAUAGAGAGGUUAUCCGCACCCCGAGAUCGGAAGAGCACACGU :: False
target 1 MT 5'PFS GUA 3'PFS UGC (mixed) RNA 1: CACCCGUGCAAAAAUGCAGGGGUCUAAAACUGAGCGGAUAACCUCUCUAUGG RNA 2: GGGAAUGGAUCCACAUCUACGAAUUCGUACCAUAGAGAGGUUAUCCGCUCAUGCAGAUCGGAAGAGCACACGU :: True
target 1 MT 5'PFS CUU 3'PFS UGC (mixed) RNA 1: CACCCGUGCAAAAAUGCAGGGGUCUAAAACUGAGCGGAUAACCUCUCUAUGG RNA 2: GGGAAUGGAUCCACAUCUACGAAUUCCUUCCAUAGAGAGGUUAUCCGCUCAUGCAGAUCGGAAGAGCACACGU :: False
target 2 MT 5'PFS UCU 3'PFS AAC (mixed) RNA 1: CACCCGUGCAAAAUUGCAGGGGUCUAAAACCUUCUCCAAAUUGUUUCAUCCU RNA 2: GGGAAUGGAUCCACAUCUACGAAUUCUCUAGGAUGAAACAAUUUGGAGAAGAACAGAUCGGAAGAGCACACGU :: True

Hello, is Kd of the following binder strictly smaller than 20 nM? target 2 MT 5'PFS UAU 3'PFS CGA (mixed) RNA 1: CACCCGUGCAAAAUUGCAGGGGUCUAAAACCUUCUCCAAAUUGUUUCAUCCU RNA 2: GGGAAUGGAUCCACAUCUACGAAUUCUAUAGGAUGAAACAAUUUGGAGAAGCGAAGAUCGGAAGAGCACACGU
False

Hello, is Kd of the following binder strictly smaller than 20 nM? target 1 complement block 8-10 (mixed) RNA 1: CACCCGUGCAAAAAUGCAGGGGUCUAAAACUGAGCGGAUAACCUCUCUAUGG RNA 2: GGGAAUGGAUCCACAUCUACGAAUUCGUACCAUAGAGAGGUAUACCGCUCACCGAGAUCGGAAGAGCACACGU
False
